assay-remarks: Modulation of P-gp (unknown origin) transfected in human MDA435/LCC6MDR cells assessed as reversible of paclitaxel resistance measured as IC50 for paclitaxel at 1 uM after 5 days by CellTiter 96 Aqueous assay
Category | rule: reported IC50 within range, see 0 = under 8 nM, 1 = from 8 nM up to 20 nM, 2 = 20 nM and over

{"sample-smiles": "COc1cc(OC)c2c(c1)O[C@H](c1cc(OC)c(OC)c(OC)c1)[C@@H](OC(=O)c1ccc(F)c(NC(=O)/C=C/c3cc(OC)c(OC)c(OC)c3)c1)C2", "assigned-category": 0}
{"sample-smiles": "COc1cc(OC)c2c(c1)O[C@H](c1cc(OC)c(OC)c(OC)c1)[C@@H](OC(=O)c1ccc(F)c(NC(=O)c3cc(OC)c(OC)c(OC)c3)c1)C2", "assigned-category": 0}
{"sample-smiles": "COc1cc(OC)c2c(c1)O[C@H](c1cc(OC)c(OC)c(OC)c1)[C@@H](OC(=O)/C=C/c1ccc(OC)c(OC)c1)C2", "assigned-category": 1}
{"sample-smiles": "COc1cc(OC)c2c(c1)O[C@H](c1cc(OC)c(OC)c(OC)c1)[C@H](OC(=O)c1cc(OC)c(OC)c(OC)c1)C2", "assigned-category": 2}
{"sample-smiles": "COc1cc(OC)c2c(c1)O[C@H](c1cc(OC)c(OC)c(OC)c1)[C@H](O)C2", "assigned-category": 2}
{"sample-smiles": "COc1cc(OC)c2c(c1)O[C@H](c1cc(OC)c(OC)c(OC)c1)[C@@H](OC(=O)/C=C/c1ccc(OC)c(OC)c1)C2=O", "assigned-category": 2}
{"sample-smiles": "COc1cc(OC)c2c(c1)O[C@H](c1cc(OC)c(OC)c(OC)c1)[C@@H](OC(=O)/C=C/c1cc(OC)c(OC)c(OC)c1)C2=O", "assigned-category": 1}
{"sample-smiles": "COc1ccc(C(=O)Nc2cc(C(=O)Nc3cc(C(=O)O[C@@H]4Cc5c(OC)cc(OC)cc5O[C@@H]4c4cc(OC)c(OC)c(OC)c4)ccc3F)ccc2F)cc1", "assigned-category": 1}
